# tested system: cardiac troponin C (TnC IAANS T53C) (Homo sapiens, UniProt P63316)
# experiment: IAANS fluorescence titration
measured metric: Kd

binder="cardiac troponin I peptide TnI128-180 128-180 (protein) LTQKIFDLRGKFKRPTLRRVRISADAMMQALLGARAKESLDLRAHLKQVKKED" measurement="200 nM"
